Tested on: intestinal porcine epithelial cell line (IPEC-J2)
condition_summary: read-out: Absolute IC50 value
// pIC50 lookup, one value per entry
In textbook form, pIC50 equals minus log to base ten of the concentration in mol/L.

1. CC1=C[C@H]2O[C@@H]3[C@H](O)C[C@](C)([C@@]2(CO)[C@H](O)C1=O)[C@]31CO1 [Deoxynivalenol, reference compound]; 5.59

Item: `COC1=C(C2=C(OC)C(=O)c3cc4oc(C)cc(=O)c4c(O)c3C2=O)C(=O)c2c(cc3oc(C)cc(=O)c3c2O)C1=O` | System: intestinal porcine epithelial cell line (IPEC-J2) | pIC50: 4.93

---

method_notes: in vitro
condition_summary: pig
endpoint_label: viability at 20 µM (%)
A number alone suffices; assume %.

Entry Cc1cc(O)cc2oc(=O)c3c(O)cc(O)cc3c12 [Alternariol] ; viability at 20 µM = 76.3
